Listing of recorded log10(Ka) by entry.
Target: T1, Aggregatibacter actinomycetemcomitans leukotoxin (LtxA) (Aggregatibacter actinomycetemcomitans …, UniProt P16462 1-1055)
T1 sequence: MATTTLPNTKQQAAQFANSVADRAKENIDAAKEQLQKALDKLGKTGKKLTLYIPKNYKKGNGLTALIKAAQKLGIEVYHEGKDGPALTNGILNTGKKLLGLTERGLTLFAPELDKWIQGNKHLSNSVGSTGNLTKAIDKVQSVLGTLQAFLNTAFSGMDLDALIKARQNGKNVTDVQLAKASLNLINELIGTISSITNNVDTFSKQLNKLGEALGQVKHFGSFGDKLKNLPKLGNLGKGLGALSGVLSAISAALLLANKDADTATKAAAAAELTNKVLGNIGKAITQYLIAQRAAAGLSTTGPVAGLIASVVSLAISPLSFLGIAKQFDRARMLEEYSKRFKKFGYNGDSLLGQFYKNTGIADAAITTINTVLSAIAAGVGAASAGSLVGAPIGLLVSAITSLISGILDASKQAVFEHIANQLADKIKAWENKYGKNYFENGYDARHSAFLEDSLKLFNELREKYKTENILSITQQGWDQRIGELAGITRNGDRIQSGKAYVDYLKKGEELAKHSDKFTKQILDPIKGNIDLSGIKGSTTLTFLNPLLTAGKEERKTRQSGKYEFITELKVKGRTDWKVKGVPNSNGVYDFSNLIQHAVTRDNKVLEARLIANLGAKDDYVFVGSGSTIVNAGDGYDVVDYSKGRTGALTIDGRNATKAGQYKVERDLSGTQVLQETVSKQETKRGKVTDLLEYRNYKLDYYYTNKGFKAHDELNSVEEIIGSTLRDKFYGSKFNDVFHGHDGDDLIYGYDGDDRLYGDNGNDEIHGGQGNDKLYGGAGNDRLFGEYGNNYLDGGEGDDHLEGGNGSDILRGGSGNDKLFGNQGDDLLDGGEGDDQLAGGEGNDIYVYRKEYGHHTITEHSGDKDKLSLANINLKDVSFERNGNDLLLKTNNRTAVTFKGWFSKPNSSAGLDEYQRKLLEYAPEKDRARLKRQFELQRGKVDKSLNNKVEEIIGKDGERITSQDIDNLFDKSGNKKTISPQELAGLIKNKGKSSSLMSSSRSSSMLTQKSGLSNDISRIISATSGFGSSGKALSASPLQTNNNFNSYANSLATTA
Experiment: SPR
// stored as log10 of Ka expressed in M⁻¹

Known results for binders:
INSERT INTO measurements (binder, val) VALUES
  ('CLKSQWNNDNPLFKSATTTVMNPKFAES [β2C peptide (C-terminal part of the β2 cytoplasmic tail)]', 7.30),
  ('CKLLITIHDRKEFAKFEEERARAKWDTANNPLYKEATSTFTNITYRGT [β3 cytoplasmic tail peptide (integrin β3)]', 6.64),
  ('CKVGFFKRQYKEMMEEANGQIAPENGTQTPSPPSEK [αX cytoplasmic tail peptide (integrin αX)]', 6.76),
  ('CKALIHLSDLREYRRFEKEKLKSQWNNDNPLFKSATTTVMNPKFAES [β2 cytoplasmic tail peptide (integrin β2, LFA-1 β subunit)]', 8.38),
  ('CGQEAGDPGSLKPLHEKDSESGGGKD [αLC peptide (C-terminal, membrane-distal part of the αL cytoplasmic tail)]', 5.57);

Input line: Item CKALIHLSDLREYRRFEKEKLKSQ [β2N peptide (N-terminal part of the β2 cytoplasmic tail)] has what recorded log10(Ka)?
Output line: 6.98

Input line: Subsequent entry: CKALIHLSDLREYRRFEKEKLKSQWNN [β2N2 peptide (longer N-terminal part of the β2 cytoplasmic tail, with WNN)]
Output line: 8.04
